Origin of measurements: patent US20230151025A1

system: Polygonum convolvulus (POLCO); assay: Herbicidal post-emergence action (D), 320 g/ha; format: in vivo; settings: ca. 3 weeks
experimental-endpoint: herbicidal effect POLCO (%)

smiles-input: CCCc1cc2scnc2nc1-c1ccccc1F
experimental-endpoint: herbicidal effect POLCO
recorded-value: 80
--
smiles-input: CCc1cc2scnc2nc1-c1ccccc1F
experimental-endpoint: herbicidal effect POLCO
recorded-value: 90
--
smiles-input: Fc1ccc(-c2nc3ncsc3cc2Cl)c(F)c1
experimental-endpoint: herbicidal effect POLCO
recorded-value: 90
--
smiles-input: Fc1ccccc1-c1nc2ncsc2cc1C1CC1
experimental-endpoint: herbicidal effect POLCO
recorded-value: 80
--
smiles-input: C=Cc1cc2scnc2nc1-c1ccccc1F
experimental-endpoint: herbicidal effect POLCO
recorded-value: 80
--
smiles-input: CCc1cc2scnc2nc1-c1ccccc1
experimental-endpoint: herbicidal effect POLCO
recorded-value: 90
